B1: C20orf112 (parent)
chain: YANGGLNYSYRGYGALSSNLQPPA

# Variants of: B1
# protocol_summary: protein stability index of a GFP-peptide fusion (GPS, HEK-293T) (PSI 1-6); higher = more stable;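 further: lentivirally expressed fusions sorted by FACS into six bins by GFP to DsRed ratio, PSI derived from sequencing read proportions per bin multiplied by bin number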
# condition_info: c terminus: a fixed tail appended
Assign protein stability index to each entry below.
Answers are plain numbers.

Example entries and their recorded answers appear below.
[
  {
    "mutation": "G4N",
    "recorded_measurement": 2.02
  },
  {
    "mutation": "G12Y",
    "recorded_measurement": 3
  },
  {
    "mutation": "Y10T",
    "recorded_measurement": 2.25
  },
  {
    "mutation": "S9F",
    "recorded_measurement": 2.99
  }
]

List the reported protein stability index of each variant below.
1. N7C
2. G12R
3. N19D

1: 2.1; 2: 1.08; 3: 2.15

Go through the list and state protein stability index for each entry.
1. Q21I
2. G14F
3. N3A
4. Y1V
5. R11W
6. R11A
7. N7Y

1. 2.76
2. 2.52
3. 1.64
4. 2.2
5. 2.44
6. 1.72
7. 2.53

The reported protein stability index of the variant `P22M` was 1.63
